# system.name: human Nav1.8 (Homo sapiens)
# Construct: expressed in transfected cells; host or cells: HEK293 (HEK293-Nav1.8)
# test.method.notes: Nav1.8 sodium channels assay, QPatch 48 HTX electrophysiology in HEK293-Nav1.8 cells
# Assay type: cell-based
# condition.details: at least one set of experimental runs; read-out: average pIC50 value against Nav1.8 (converted)
Measured IC50, listed per entry.

The examples below pair each entry with its known result.
INSERT INTO results (compound, result) VALUES
  ('Cc1cc(F)ccc1N1CN(c2ccc(=O)[nH]c2C)C(=O)c2cc(Cl)c(C)nc21 [Example 72]', '≤ 100 nM'),
  ('Cc1cc(F)cc(C)c1N1CN(c2ccc(=O)[nH]c2)C(=O)c2ccc(C(F)(F)F)cc21 [Example 38]', '794 to 7940 nM'),
  ('Cc1cc(=O)[nH]c(C)c1N1CN(c2ccc(F)cc2C(C)C)c2cc(C(F)(F)F)ccc2C1=O [Example 62]', '794 to 7940 nM'),
  ('Cc1cc(F)ccc1N1CN(c2ccnc(C(N)=O)c2)C(=O)c2c1ccc(Cl)c2F [Example 8]', '794 to 7940 nM');

Value wanted: IC50 (human Nav1.8 (Homo sapiens)) of entry Cc1cc(F)ccc1N1CN(c2ccc(=O)[nH]c2C)C(=O)c2cc(F)ccc21 [Example 143]
≤ 100 nM

Form field - read-out: IC50; system: human Nav1.8 (Homo sapiens); submitted item: Cc1cc(F)ccc1N1CN(c2ccc(=O)[nH]c2C)C(=O)c2cc(F)c(C(F)(F)F)cc21 [Example 110]
≤ 100 nM

Form field: IC50 recorded for CCc1cc(F)ccc1N1CN(c2ccc(=O)[nH]c2C)C(=O)c2ccc(C(F)(F)F)cc21 [Example 184] with human Nav1.8 (Homo sapiens) (enter value)
≤ 100 nM

Request body: readout IC50, system human Nav1.8 (Homo sapiens), query Cc1[nH]c(=O)ccc1N1CN([C@@H]2CCCC[C@H]2C)c2cc(C(F)(F)F)ccc2C1=O (racemic) [Example 278] . Return the value.
≤ 100 nM

Enter reported IC50 observed with human Nav1.8 (Homo sapiens) for Cc1cc(F)ccc1N1c2cc(C(F)(F)F)ccc2C(=O)N(c2ccc(=O)[nH]c2)C1C (single isomer, unassigned) [Example 285]
794 to 7940 nM

Test system human Nav1.8 (Homo sapiens); read-out IC50; what value for Cc1[nH]c(=O)ccc1N1CN([C@@H]2CCCC[C@@H]2C)c2cc(C(F)(F)F)ccc2C1=O [Example 162] ?
≤ 100 nM

Look up IC50 with human Nav1.8 (Homo sapiens) for this compound: Cc1[nH]c(=O)ccc1N1CN(c2ccc(F)cc2C(C)C)c2cc(F)ccc2C1=O [Example 93]
≤ 100 nM

Tell me reported IC50 for COc1cc(F)ccc1N1CN(c2ccc(=O)[nH]c2)C(=O)c2ccc(C(F)(F)F)cc21 [Example 216] , tested with human Nav1.8 (Homo sapiens).
126 to 631 nM

Observed IC50 on human Nav1.8 (Homo sapiens) for Cc1[nH]c(=O)ccc1N1CN(c2ccc(F)cc2C(C)C)c2ccc(Cl)cc2C1=O [Example 76] , please.
≤ 100 nM

For the record Cc1[nH]c(=O)ccc1N1CN(c2ccc(F)cc2C(C)C)c2ccc(Cl)c(C)c2C1=O [Example 97] , what value of IC50 is listed for human Nav1.8 (Homo sapiens)?
≤ 100 nM

Give IC50 (human Nav1.8 (Homo sapiens)) of the following compound: Cc1[nH]c(=O)ccc1N1CN(c2ccc(F)c(C#N)c2C)c2ccc(C(F)(F)F)cc2C1=O [Example 140]
126 to 631 nM

Provide the documented IC50 with human Nav1.8 (Homo sapiens) as the system for Cc1[nH]c(=O)ccc1N1CN(c2ccc(F)cc2N(C)C)c2ccc(Cl)cc2C1=O [Example 200]
≤ 100 nM

###

Each item that follows carries a reported IC50.
# system.name: human Nav1.8 (Homo sapiens)
# Construct: expressed in transfected cells; host or cells: HEK293 (HEK293-Nav1.8)
# test.method.notes: Nav1.8 sodium channels assay, QPatch 48 HTX electrophysiology in HEK293-Nav1.8 cells
# Assay type: cell-based
# condition.details: at least one set of experimental runs; read-out: average pIC50 value against Nav1.8 (converted)

Solved entries:
INSERT INTO results (compound, system_name, quantity, result) VALUES
  ('Cc1cnccc1N1CN(c2ccc(OC(F)(F)F)cc2C)c2ccc(C(F)(F)F)cc2C1=O [Example 21]', 'human Nav1.8 (Homo sapiens)', 'IC50', '0.126 to 0.631 µM'),
  ('CCOc1ccc(N2CN(c3ccc(=O)[nH]c3C)C(=O)c3ccc(C(F)(F)F)cc32)cc1 [Example 156]', 'human Nav1.8 (Homo sapiens)', 'IC50', '0.126 to 0.631 µM'),
  ('Cc1cnccc1N1CN(c2ccc(F)cc2C)c2ccc(C(F)(F)F)cc2C1=O [Example 16]', 'human Nav1.8 (Homo sapiens)', 'IC50', '0.126 to 0.631 µM');

Which IC50 value belongs to Cc1cc(=O)[nH]c(C)c1N1CN(c2ccc(F)cc2C(C)C)c2cc(C(F)(F)F)ccc2C1=O (single isomer, unassigned) [Example 289] ?
0.794 to 7.94 µM

Which IC50 is reported for this compound? Cc1cc(F)ccc1N1CN(c2c[nH]c(=O)nc2C)C(=O)c2cc(Cl)ccc21 [Example 61]
≤ 0.1 µM

###

# system.name: human Nav1.8 (Homo sapiens)
# Construct: expressed in transfected cells; host or cells: HEK293 (HEK293-Nav1.8)
# test.method.notes: Nav1.8 sodium channels assay, QPatch 48 HTX electrophysiology in HEK293-Nav1.8 cells
# Assay type: cell-based
# condition.details: at least one set of experimental runs; read-out: average pIC50 value against Nav1.8 (converted)
quantity: IC50

INSERT INTO assay_data (chem_smiles, result) VALUES
  ('COc1ncc(N2CN(c3ccc(F)cc3C)c3cc(C(F)(F)F)ccc3C2=O)cn1', '794 to 7940 nM'),
  ('Cc1[nH]c(=O)ccc1N1CN(c2ccc(F)cc2C(C)C)c2cc(F)c(F)cc2C1=O', '≤ 100 nM'),
  ('COc1cc(F)ccc1N1CN(c2ccc(=O)[nH]c2C)C(=O)c2cc(F)c(F)cc21', '126 to 631 nM');

Now turn to the next molecule.
Suppose we examine the molecule Cc1cc(F)ccc1N1CN(c2ccc(=O)[nH]c2C)C(=O)c2ccc(C(F)(F)F)cc21 ; what IC50 value has been reported?
≤ 100 nM

###

# system.name: human Nav1.8 (Homo sapiens, UniProt Q9Y5Y9)
# Construct: expressed in transfected cells; host or cells: HEK293 (HEK293-Nav1.8)
# Sequence (Q9Y5Y9 whole entry): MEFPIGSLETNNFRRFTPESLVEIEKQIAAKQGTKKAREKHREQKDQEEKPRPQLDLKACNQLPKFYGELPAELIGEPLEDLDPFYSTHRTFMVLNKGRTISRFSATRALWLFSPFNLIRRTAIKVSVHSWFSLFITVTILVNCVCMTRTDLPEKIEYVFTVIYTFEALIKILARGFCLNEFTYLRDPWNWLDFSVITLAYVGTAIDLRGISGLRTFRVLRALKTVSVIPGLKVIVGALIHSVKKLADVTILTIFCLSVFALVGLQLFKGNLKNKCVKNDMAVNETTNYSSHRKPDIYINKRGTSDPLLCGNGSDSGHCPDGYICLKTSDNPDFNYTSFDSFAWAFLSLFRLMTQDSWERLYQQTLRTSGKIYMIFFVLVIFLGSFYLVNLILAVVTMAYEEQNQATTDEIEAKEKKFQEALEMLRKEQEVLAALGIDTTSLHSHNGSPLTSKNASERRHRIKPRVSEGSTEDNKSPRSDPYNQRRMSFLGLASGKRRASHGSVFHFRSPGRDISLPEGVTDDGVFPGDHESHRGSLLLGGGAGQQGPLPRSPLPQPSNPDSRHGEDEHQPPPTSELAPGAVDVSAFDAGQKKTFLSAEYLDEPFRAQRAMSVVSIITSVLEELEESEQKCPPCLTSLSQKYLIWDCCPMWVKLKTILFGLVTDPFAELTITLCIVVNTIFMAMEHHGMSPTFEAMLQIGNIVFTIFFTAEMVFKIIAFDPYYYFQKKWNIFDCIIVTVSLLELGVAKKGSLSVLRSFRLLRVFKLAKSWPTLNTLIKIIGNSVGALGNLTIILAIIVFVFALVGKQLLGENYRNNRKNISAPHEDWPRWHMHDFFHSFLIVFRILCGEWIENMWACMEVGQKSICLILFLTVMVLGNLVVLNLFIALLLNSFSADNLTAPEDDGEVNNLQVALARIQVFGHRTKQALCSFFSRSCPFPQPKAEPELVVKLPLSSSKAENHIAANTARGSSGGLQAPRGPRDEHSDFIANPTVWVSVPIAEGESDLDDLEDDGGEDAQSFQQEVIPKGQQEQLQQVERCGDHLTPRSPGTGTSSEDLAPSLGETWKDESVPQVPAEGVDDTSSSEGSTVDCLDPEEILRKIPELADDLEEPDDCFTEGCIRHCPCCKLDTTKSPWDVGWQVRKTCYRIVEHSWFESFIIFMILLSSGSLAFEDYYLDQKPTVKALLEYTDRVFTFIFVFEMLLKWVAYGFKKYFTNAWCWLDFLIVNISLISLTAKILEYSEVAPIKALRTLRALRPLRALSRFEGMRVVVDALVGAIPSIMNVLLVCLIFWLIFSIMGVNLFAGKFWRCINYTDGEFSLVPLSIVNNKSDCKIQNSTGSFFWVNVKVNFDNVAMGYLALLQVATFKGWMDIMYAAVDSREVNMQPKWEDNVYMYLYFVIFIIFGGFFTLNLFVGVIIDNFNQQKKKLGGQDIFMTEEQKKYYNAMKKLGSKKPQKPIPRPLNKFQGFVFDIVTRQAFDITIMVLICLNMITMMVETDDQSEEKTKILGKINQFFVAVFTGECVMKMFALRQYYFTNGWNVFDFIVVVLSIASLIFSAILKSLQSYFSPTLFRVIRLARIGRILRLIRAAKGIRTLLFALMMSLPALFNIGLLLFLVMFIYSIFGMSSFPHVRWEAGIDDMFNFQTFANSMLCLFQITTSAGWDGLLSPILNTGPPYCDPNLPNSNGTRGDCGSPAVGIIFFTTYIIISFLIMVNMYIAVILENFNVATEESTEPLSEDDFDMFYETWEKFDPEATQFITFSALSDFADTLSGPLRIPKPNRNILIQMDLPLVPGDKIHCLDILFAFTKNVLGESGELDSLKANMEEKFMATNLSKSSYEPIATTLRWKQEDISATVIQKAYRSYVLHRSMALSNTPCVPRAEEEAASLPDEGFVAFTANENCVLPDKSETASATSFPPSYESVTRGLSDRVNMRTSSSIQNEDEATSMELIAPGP
# Sequence (Q07699 19-218 partner): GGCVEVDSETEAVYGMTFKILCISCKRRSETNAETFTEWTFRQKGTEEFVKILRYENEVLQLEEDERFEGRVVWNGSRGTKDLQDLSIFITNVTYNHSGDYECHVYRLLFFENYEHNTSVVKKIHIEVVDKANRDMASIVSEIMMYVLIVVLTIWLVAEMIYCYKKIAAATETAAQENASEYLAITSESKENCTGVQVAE
# test.method.notes: Nav1.8 sodium channels assay, QPatch 48 HTX electrophysiology in HEK293-Nav1.8 cells
# Format: cell-based
# condition.details: at least one set of experimental runs; read-out: average pIC50 value against Nav1.8 (converted)
Entries annotated with measured IC50

INSERT INTO measurements (compound, quantity, result) VALUES
  ('Cc1[nH]c(=O)ccc1N1CN(c2ccc(F)cc2C(C)C)c2cc(C(F)(F)F)ccc2C1=O', 'IC50', '≤ 100 nM'),
  ('Cc1cc(F)ccc1N1CN([C@@H]2CCC(=O)N[C@@H]2C)C(=O)c2ccc(C(F)(F)F)cc21', 'IC50', '126 to 631 nM'),
  ('Cc1c[n+]([O-])ccc1N1CN(c2ccc(F)cc2C)c2cc(C(F)F)c(Cl)cc2C1=O', 'IC50', '≤ 100 nM');

Need IC50 of CCc1[nH]c(=O)ccc1N1CN(c2ccc(F)cc2C)c2ccc(Cl)cc2C1=O , thanks.
≤ 100 nM

Fill in: IC50 of Cc1cc(F)ccc1N1CN(c2ccc(=O)[nH]c2C)C(=O)c2ccc(S(C)(=O)=O)cc21 is ___
794 to 7940 nM

###

// reported IC50 for each item listed
# system.name: human Nav1.8 (Homo sapiens, UniProt Q9Y5Y9)
# Construct: expressed in transfected cells; host or cells: HEK293 (HEK293-Nav1.8)
# test.method.notes: Nav1.8 sodium channels assay, QPatch 48 HTX electrophysiology in HEK293-Nav1.8 cells
# Assay type: cell-based
# condition.details: at least one set of experimental runs; read-out: average pIC50 value against Nav1.8 (converted)

INSERT INTO results (chem_smiles, quantity, result) VALUES
  ('Cc1[nH]c(=O)ccc1N1CN(c2ccc(F)cc2C(C)C)c2nc(C(F)F)ccc2C1=O', 'IC50', '≤ 0.1 µM'),
  ('Cc1cc(F)ccc1N1CN(c2ccc(=O)[nH]c2C)C(=O)c2ccc(Br)cc21', 'IC50', '≤ 0.1 µM'),
  ('O=C1c2ccc(C(F)(F)F)cc2N(c2ccc(F)cc2)CN1c1ccc(=O)[nH]c1', 'IC50', '0.126 to 0.631 µM'),
  ('CCc1cc(F)ccc1N1CN(c2ccc(=O)[nH]c2C)C(=O)c2cc(Cl)ccc21', 'IC50', '≤ 0.1 µM'),
  ('CCc1[nH]c(=O)ccc1N1CN(c2ccc(F)cc2C(C)C)c2ccc(Cl)cc2C1=O', 'IC50', '≤ 0.1 µM');

Entry O=C1c2ccc(C(F)(F)F)cc2N(Cc2ccc(F)cc2)CN1c1ccc(=O)[nH]c1 , system human Nav1.8 (Homo sapiens, UniProt Q9Y5Y9): what IC50 was measured?
0.794 to 7.94 µM

Which measured IC50 belongs to Cc1[nH]c(=O)ccc1N1CN(c2ccccc2)c2cc(C(F)(F)F)ccc2C1=O , tested on human Nav1.8 (Homo sapiens, UniProt Q9Y5Y9)?
0.794 to 7.94 µM

Form field - read-out: IC50; system: human Nav1.8 (Homo sapiens, UniProt Q9Y5Y9); submitted item: Cc1cc(F)ccc1N1CN(c2cnc(=O)[nH]c2C)C(=O)c2cc(Cl)c(C#N)cc21
≤ 0.1 µM

Hi! What's the reported IC50 for CCc1cc(F)ccc1N1CN(c2ccc(=O)[nH]c2C)C(=O)c2cc(Cl)c(F)cc21 on human Nav1.8 (Homo sapiens, UniProt Q9Y5Y9)?
≤ 0.1 µM

Request: IC50, test system human Nav1.8 (Homo sapiens, UniProt Q9Y5Y9), entry Cc1cccc(F)c1N1CN(c2ccc(=O)[nH]c2C)C(=O)c2cc(C(F)(F)F)ccc21
0.794 to 7.94 µM

Request: IC50, test system human Nav1.8 (Homo sapiens, UniProt Q9Y5Y9), entry Cc1cc(F)ccc1N1CN(c2ccc(=O)[nH]c2C)C(=S)c2ccc(C(F)(F)F)cc21
≤ 0.1 µM

Look up IC50 with human Nav1.8 (Homo sapiens, UniProt Q9Y5Y9) for this molecule: Cc1cc(F)ccc1N1CN(c2ccc(=O)[nH]c2Cl)C(=O)c2ccc(C(F)(F)F)cc21
0.794 to 7.94 µM

Given the entry Cc1ncsc1N1CN(c2ccc(=O)[nH]c2C)C(=O)c2cc(C(F)(F)F)ccc21 , what IC50 was observed with human Nav1.8 (Homo sapiens, UniProt Q9Y5Y9)?
0.794 to 7.94 µM

Item: COc1cc(F)ccc1N1CN(c2ccc(=O)[nH]c2C)C(=O)c2cc(Cl)ccc21 Test system: human Nav1.8 (Homo sapiens, UniProt Q9Y5Y9) Read-out: IC50 Value: ?
≤ 0.1 µM

Please state recorded IC50 (tested on human Nav1.8 (Homo sapiens, UniProt Q9Y5Y9)) of Cc1[nH]c(=O)ccc1N1CN([C@H]2CCOC[C@@H]2C)c2cc(C(F)(F)F)ccc2C1=O
0.126 to 0.631 µM

Give IC50 (human Nav1.8 (Homo sapiens, UniProt Q9Y5Y9)) of the following molecule: Cc1cc(F)ccc1N1CN(c2cc[nH]c(=O)c2C)C(=O)c2ccc(C(F)(F)F)cc21
0.794 to 7.94 µM

This collection of values is drawn from patent US20230103791A1.
